Test system: horse erythrocytes
test conditions: 375 µM
Square brackets hold non-standard residues; d marks the D form. Peptide text beside a SMILES is read from it. * marks the point of attachment. Lauroyl = CCCCCCCCCCCC(=O)*; Hexanoyl = CCCCCC(=O)*; Butyryl = CCCC(=O)*
Criterion: Hemolysis meeting or surpassing 50%. Met: met. Not met: not met.

Record CCCCCCCCCCCC(=O)N[C@H](C(=O)N[C@@H](CC(C)C)C(=O)N1CCC[C@H]1C(=O)N[C@H](Cc1ccccc1)C(=O)N[C@@H](CCCCN)C(=O)N[C@H](Cc1ccccc1)C(=O)N1CCC[C@H]1C(=O)N[C@H](Cc1ccccc1)C(=O)N[C@H](Cc1ccccc1)C(=O)N1CCC[C@H]1C(=O)N[C@H](Cc1ccccc1)C(=O)N[C@@H](CCCNC(=N)N)C(=O)N[C@@H](CCCNC(=N)N)C(N)=O)[C@@H](C)CC [BP528] (Lauroyl-ILP[dF]K[dF]P[dF][dF]P[dF]RR-NH2) ; criterion: Hemolysis no lower than 50%. Met?
met

Record CCCC(=O)N[C@H](C(=O)N[C@@H](CC(C)C)C(=O)N1CCC[C@H]1C(=O)N[C@H](Cc1ccccc1)C(=O)N[C@@H](CCCCN)C(=O)N[C@H](Cc1ccccc1)C(=O)N1CCC[C@H]1C(=O)N[C@H](Cc1ccccc1)C(=O)N[C@H](Cc1ccccc1)C(=O)N1CCC[C@H]1C(=O)N[C@H](Cc1ccccc1)C(=O)N[C@@H](CCCNC(=N)N)C(=O)N[C@@H](CCCNC(=N)N)C(N)=O)[C@@H](C)CC [BP526] (Butyryl-ILP[dF]K[dF]P[dF][dF]P[dF]RR-NH2) ; criterion: Hemolysis no lower than 50%. Met?
not met

Record CC[C@H](C)[C@H](NC(=O)[C@H](CCCNC(=N)N)NC(=O)[C@@H](N)Cc1ccccc1)C(=O)N[C@@H](CCCNC(=N)N)C(=O)N[C@H](C(=O)N[C@@H](CCCNC(=N)N)C(=O)N[C@H](C(N)=O)C(C)C)C(C)C [FV7] (H-FRIRVRV-NH2; N-terminus assumed) ; criterion: Hemolysis no lower than 50%. Met?
not met

Record CCCCCC(=O)N[C@H](C(=O)N[C@@H](CC(C)C)C(=O)N1CCC[C@H]1C(=O)N[C@H](Cc1ccccc1)C(=O)N[C@@H](CCCCN)C(=O)N[C@H](Cc1ccccc1)C(=O)N1CCC[C@H]1C(=O)N[C@H](Cc1ccccc1)C(=O)N[C@H](Cc1ccccc1)C(=O)N1CCC[C@H]1C(=O)N[C@H](Cc1ccccc1)C(=O)N[C@@H](CCCNC(=N)N)C(=O)N[C@@H](CCCNC(=N)N)C(N)=O)[C@@H](C)CC [BP527] (Hexanoyl-ILP[dF]K[dF]P[dF][dF]P[dF]RR-NH2) ; criterion: Hemolysis no lower than 50%. Met?
met

Record `CC(=O)N[C@@H](CS)C(=O)O` ; criterion: Hemolysis no lower than 50%. Met?
not met

###

Test system: X. fastidiosa subsp. fastidiosa IVIA 5387.2
Type: cell-based, Xylella fastidiosa
test conditions: 50 µM
Square brackets hold non-standard residues; d marks the D form. Peptide text beside a SMILES is read from it. * marks the point of attachment. Lauroyl = CCCCCCCCCCCC(=O)*; Hexanoyl = CCCCCC(=O)*
value kind: Biofilm formation Ratio (treatment/NTC)
Reply: number alone, nothing else.

Could you share which Biofilm formation Ratio (treatment/NTC) value was measured for CCCCCCCCCCCC(=O)N[C@H](C(=O)N[C@@H](CC(C)C)C(=O)N1CCC[C@H]1C(=O)N[C@H](Cc1ccccc1)C(=O)N[C@@H](CCCCN)C(=O)N[C@H](Cc1ccccc1)C(=O)N1CCC[C@H]1C(=O)N[C@H](Cc1ccccc1)C(=O)N[C@H](Cc1ccccc1)C(=O)N1CCC[C@H]1C(=O)N[C@H](Cc1ccccc1)C(=O)N[C@@H](CCCNC(=N)N)C(=O)N[C@@H](CCCNC(=N)N)C(N)=O)[C@@H](C)CC [BP528] (Lauroyl-ILP[dF]K[dF]P[dF][dF]P[dF]RR-NH2) ?
0.03

Could you share which Biofilm formation Ratio (treatment/NTC) value was measured for CC[C@H](C)[C@H](NC(=O)[C@H](CCCNC(=N)N)NC(=O)[C@@H](NC(=O)[C@H](C)NC(=O)[C@@H](NC(=O)[C@@H](NC(=O)[C@H](CC(C)C)NC(=O)[C@H](CCCNC(=N)N)NC(=O)[C@@H](N)C(C)C)[C@@H](C)CC)C(C)C)C(C)C)C(=O)N[C@@H](Cc1c[nH]c2ccccc12)C(=O)N[C@@H](CCCNC(=N)N)C(=O)N[C@@H](CCCNC(=N)N)C(N)=O [IDR-1018] (H-VRLIVAVRIWRR-NH2; N-terminus and C-terminus assumed) ?
0.06

Could you share which Biofilm formation Ratio (treatment/NTC) value was measured for CC[C@H](C)[C@H](NC(=O)[C@H](CCCNC(=N)N)NC(=O)[C@@H](N)Cc1ccccc1)C(=O)N[C@@H](CCCNC(=N)N)C(=O)N[C@H](C(=O)N[C@@H](CCCNC(=N)N)C(=O)N[C@H](C(N)=O)C(C)C)C(C)C [FV7] (H-FRIRVRV-NH2; N-terminus assumed) ?
0.20

Could you share which Biofilm formation Ratio (treatment/NTC) value was measured for `CC[C@H](C)[C@H](NC(=O)[C@H](CCCNC(=N)N)NC(=O)[C@H](CCCNC(=N)N)NC(=O)[C@H](CC(C)C)NC(=O)[C@H](Cc1c[nH]c2ccccc12)NC(=O)[C@H](C)NC(=O)[C@H](CCCCN)NC(=O)[C@@H](NC(=O)[C@H](CCCNC(=N)N)NC(=O)[C@H](CCCNC(=N)N)NC(=O)[C@H](CC(C)C)NC(=O)[C@@H](N)Cc1c[nH]c2ccccc12)[C@@H](C)CC)C(=O)N[C@@H](CCCCN)C(=O)N[C@@H](C)C(=O)O` ?
0.09

Could you share which Biofilm formation Ratio (treatment/NTC) value was measured for CC[C@H](C)[C@H](NC(=O)[C@H](CCCNC(=N)N)NC(=O)[C@@H](NC(=O)[C@H](Cc1c[nH]c2ccccc12)NC(=O)[C@@H](NC(=O)[C@@H](NC(=O)[C@@H](N)CCCNC(=N)N)[C@@H](C)CC)C(C)C)C(C)C)C(=O)N[C@@H](CCCNC(=N)N)C(=O)N[C@@H](CCCNC(=N)N)C(=O)N[C@@H](Cc1c[nH]c2ccccc12)C(=O)N[C@@H](Cc1ccccc1)C(=O)N[C@H](C(N)=O)C(C)C [RJK2] (H-RIVWVRIRRWFV-NH2) ?
0.02

Could you share which Biofilm formation Ratio (treatment/NTC) value was measured for CCCCCC(=O)N[C@H](C(=O)N[C@@H](CC(C)C)C(=O)N1CCC[C@H]1C(=O)N[C@H](Cc1ccccc1)C(=O)N[C@@H](CCCCN)C(=O)N[C@H](Cc1ccccc1)C(=O)N1CCC[C@H]1C(=O)N[C@H](Cc1ccccc1)C(=O)N[C@H](Cc1ccccc1)C(=O)N1CCC[C@H]1C(=O)N[C@H](Cc1ccccc1)C(=O)N[C@@H](CCCNC(=N)N)C(=O)N[C@@H](CCCNC(=N)N)C(N)=O)[C@@H](C)CC [BP527] (Hexanoyl-ILP[dF]K[dF]P[dF][dF]P[dF]RR-NH2) ?
0.18

###

System: horse erythrocytes
test conditions: 375 µM
Peptide text beside a SMILES is read from it.
value kind: Hemolysis (%)
# value in %; strip the unit string

Could you share which Hemolysis value was measured for CC[C@H](C)[C@H](NC(=O)[C@H](CCCNC(=N)N)NC(=O)[C@H](CCCNC(=N)N)NC(=O)[C@H](Cc1c[nH]c2ccccc12)NC(=O)[C@H](Cc1ccccc1)NC(=O)[C@@H](N)C(C)C)C(=O)N[C@@H](CCCNC(=N)N)C(=O)N[C@H](C(=O)N[C@@H](Cc1c[nH]c2ccccc12)C(=O)N[C@H](C(=O)N[C@H](C(=O)N[C@@H](CCCNC(=N)N)C(N)=O)[C@@H](C)CC)C(C)C)C(C)C [LJK2] (H-VFWRRIRVWVIR-NH2) ?
72.4

Could you share which Hemolysis value was measured for CC[C@H](C)[C@H](NC(=O)CN)C(=O)N[C@@H](CC(C)C)C(=O)NCC(=O)N[C@@H](CCCCN)C(=O)N[C@@H](CC(C)C)C(=O)N[C@@H](Cc1c[nH]c2ccccc12)C(=O)N[C@@H](CCC(=O)O)C(=O)NCC(=O)N[C@H](C(=O)N[C@@H](CCCCN)C(=O)N[C@@H](CO)C(=O)N[C@H](C(=O)N[C@@H](Cc1ccccc1)C(N)=O)[C@@H](C)CC)C(C)C [HP1404] (H-GILGKLWEGVKSIF-NH2) ?
100.0

Could you share which Hemolysis value was measured for `CC[C@H](C)[C@H](N)C(=O)N[C@@H](CC(C)C)C(=O)N1CCC[C@H]1C(=O)N[C@@H](Cc1c[nH]c2ccccc12)C(=O)N[C@@H](CCCCN)C(=O)N[C@@H](Cc1c[nH]c2ccccc12)C(=O)N1CCC[C@H]1C(=O)N[C@@H](Cc1c[nH]c2ccccc12)C(=O)N[C@@H](Cc1c[nH]c2ccccc12)C(=O)N1CCC[C@H]1C(=O)N[C@@H](Cc1c[nH]c2ccccc12)C(=O)N[C@@H](CCCNC(=N)N)C(=O)N[C@@H](CCCNC(=N)N)C(N)=O` ?
100.0
